# Target or system: P2X2/3 (Homo sapiens, UniProt P56373+Q9UBL9)
# Construct: expressed in transfected cells; host or cells: HEK293
# Experimental details: P2X2/3 stable HEK293 cell lines responding to α,β-meATP (screening assay)
# Type: cell-based
# Measurement setup: P2X2/3 stable Line 12
Measured parameter: IC50 (nM)
Hi! Could you send only the number? It should be in nM, unit omitted.

Request: Requested field: IC50. Item: `Nc1ncnc2c1ncn2[C@@H]1O[C@H](COP(=O)(O)CP(=O)(O)OP(=O)(O)O)[C@@H](O)[C@H]1O`
Result: 1780

----------
# Target or system: P2X2/3 (Homo sapiens, UniProt P56373+Q9UBL9)
# Construct: expressed in transfected cells; host or cells: HEK293
# Sequence (Q9UBL9 1-471): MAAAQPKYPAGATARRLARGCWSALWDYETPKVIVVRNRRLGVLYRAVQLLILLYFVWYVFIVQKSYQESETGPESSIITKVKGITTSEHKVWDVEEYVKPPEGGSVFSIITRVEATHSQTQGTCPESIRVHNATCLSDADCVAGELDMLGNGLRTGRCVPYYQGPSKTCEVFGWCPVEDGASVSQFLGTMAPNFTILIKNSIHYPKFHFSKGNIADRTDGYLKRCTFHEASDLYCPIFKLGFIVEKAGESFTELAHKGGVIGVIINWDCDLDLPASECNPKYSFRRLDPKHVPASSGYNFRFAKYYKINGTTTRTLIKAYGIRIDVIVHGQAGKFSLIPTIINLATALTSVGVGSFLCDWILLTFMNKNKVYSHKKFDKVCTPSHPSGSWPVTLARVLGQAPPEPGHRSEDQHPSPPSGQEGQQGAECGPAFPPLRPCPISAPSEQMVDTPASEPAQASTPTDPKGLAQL
# Sequence (P56373 1-397): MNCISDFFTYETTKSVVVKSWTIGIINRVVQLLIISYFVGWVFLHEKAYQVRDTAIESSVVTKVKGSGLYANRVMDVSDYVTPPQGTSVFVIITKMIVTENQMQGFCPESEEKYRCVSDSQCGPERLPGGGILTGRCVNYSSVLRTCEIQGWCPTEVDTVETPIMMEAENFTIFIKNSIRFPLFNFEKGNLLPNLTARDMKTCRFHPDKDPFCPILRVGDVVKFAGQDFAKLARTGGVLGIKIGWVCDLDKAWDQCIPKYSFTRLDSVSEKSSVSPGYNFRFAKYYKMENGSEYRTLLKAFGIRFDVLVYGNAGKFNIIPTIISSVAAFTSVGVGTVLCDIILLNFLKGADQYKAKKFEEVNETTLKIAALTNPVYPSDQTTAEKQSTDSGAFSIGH
# Experimental details: P2X2/3 stable HEK293 cell lines responding to α,β-meATP (screening assay)
# Type: cell-based
# Measurement setup: P2X2/3 stable Line 9
Measured parameter: IC50 (µM)
Response body: numeric value in µM, unit text excluded.

Request: Short answer please: IC50, P2X2/3 (Homo sapiens, UniProt P56373+Q9UBL9), entry Nc1ncnc2c1ncn2[C@@H]1O[C@H](COP(=O)(O)CP(=O)(O)OP(=O)(O)O)[C@@H](O)[C@H]1O [α,β-meATP]
Result: 3.93
